- MEASUREMENT_DESCRIPTION: Human HepG2 cell viability assay in 384 well format
- Assay type: toxicity, cell-based
- Set-up: dose 125 nL, time 70.5 hour; concentration not given beside the values
- ASSAY_CONDITIONS: HepG2 cells, read-out: Inhibition
Would you kindly list cytotoxicity at 70.5 h for each of these compounds?
Field format: number, assumed %, no unit text.

Provide one value: measured cytotoxicity at 70.5 h of NC(=O)C1CCN(Cn2nc(-c3ccc(F)cc3)oc2=O)C1 (stereo unspecified) -7.79

Provide one value: measured cytotoxicity at 70.5 h of `CN(CCNC(=O)N1CCN(Cc2ccon2)CC1)c1ccccc1` -5.16

Provide one value: measured cytotoxicity at 70.5 h of `CC[C@@]1(O)CCN(C(=O)c2ccc(-c3ccco3)cc2)C[C@H]1O` -5.37

Provide one value: measured cytotoxicity at 70.5 h of `CCSCc1cccc(NCc2cccnc2)c1` -14.7

Provide one value: measured cytotoxicity at 70.5 h of `Cc1cccc(NC2CCN(C(=O)Nc3ccc(F)c(F)c3)CC2)n1` -4.64

Provide one value: measured cytotoxicity at 70.5 h of `O=C(O)c1cc(-c2cn[nH]c2)cc(S(=O)(=O)N2CCSCC2)c1` -4.23

---

- MEASUREMENT_DESCRIPTION: Human HepG2 cell viability assay in 384 well format
- Format: toxicity, cell-based
- Design: dose 125 nL, time 70.5 hour; concentration not given beside the values
- ASSAY_CONDITIONS: HepG2 cells, read-out: Inhibition
MEASURED_PARAMETER: cytotoxicity at 70.5 h (%)
Field format: number, assumed %, no unit text.

Provide one value: measured cytotoxicity at 70.5 h of `N#Cc1ccc(OCCN2CCn3c(nnc3C3CC3)C2)cc1` 6.25

Provide one value: measured cytotoxicity at 70.5 h of Cc1noc(C)c1-c1cccc(C2CCCNC2)n1 (configuration not stated) 2.18

Provide one value: measured cytotoxicity at 70.5 h of Cc1nnc(N2CCCC(C(=O)c3cccc(Cl)c3)C2)o1 (configuration not stated) -3.19

Provide one value: measured cytotoxicity at 70.5 h of CN(C)C(CNC(=O)CCNC(=O)OCC(F)(F)F)c1ccsc1 (configuration not stated) -0.647

Provide one value: measured cytotoxicity at 70.5 h of CC(C)N(C)Cc1cnc2n1CCN(C(=O)Cc1cccs1)C2C (configuration not stated) -6.21

Provide one value: measured cytotoxicity at 70.5 h of CN(C)C(=O)CC1CC2(CCN(Cc3ccco3)CC2)c2ccccc21 (configuration not stated) -27.6

Provide one value: measured cytotoxicity at 70.5 h of CN(CC(=O)N1CCCC1Cn1cccn1)Cc1ccccc1 (configuration not stated) -17.4

Provide one value: measured cytotoxicity at 70.5 h of `CCOc1ccc(N2CCCN=C2NC(=O)c2cccc(C)c2)cc1` -6.22

Provide one value: measured cytotoxicity at 70.5 h of CCN(CC1CN(Cc2ccccn2)CCO1)c1cccnn1 (configuration not stated) -9.99

Provide one value: measured cytotoxicity at 70.5 h of `CN(CC(=O)NC1CC1)S(=O)(=O)c1ccc(F)cc1Cl` -3.95

Provide one value: measured cytotoxicity at 70.5 h of Cc1ccc(-c2csc3c(=O)[nH]c(N4CCCC(C(N)=O)C4)nc23)cc1 (configuration not stated) 1.04

Provide one value: measured cytotoxicity at 70.5 h of `CC(C)(C)c1nc(CNc2ccccc2SCCC(N)=O)cs1` -107
